Target: D2 receptor (Chlorocebus aethiops)
Sequence (P52702 whole entry): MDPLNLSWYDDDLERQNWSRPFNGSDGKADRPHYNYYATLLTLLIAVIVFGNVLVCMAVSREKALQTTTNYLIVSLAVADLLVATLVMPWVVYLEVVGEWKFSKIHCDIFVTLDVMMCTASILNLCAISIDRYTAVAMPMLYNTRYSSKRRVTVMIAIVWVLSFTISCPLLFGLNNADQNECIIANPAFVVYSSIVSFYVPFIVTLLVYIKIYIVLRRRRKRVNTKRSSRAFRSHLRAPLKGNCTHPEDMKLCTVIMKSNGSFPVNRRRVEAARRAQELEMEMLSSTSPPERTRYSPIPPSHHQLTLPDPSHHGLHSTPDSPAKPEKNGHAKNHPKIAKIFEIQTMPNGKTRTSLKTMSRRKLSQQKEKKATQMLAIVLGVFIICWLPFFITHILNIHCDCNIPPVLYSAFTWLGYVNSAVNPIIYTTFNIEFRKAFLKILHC
Assay: D2 receptor binding (displacement of 3H-YM 09151-2, COS cells with recombinant receptor)
Settings: 0.5 nM 3H-YM 09151-2; nonspecific binding with 1 mM spiperone
pKi: −log10 of the molar value. Structures can show the parent of a compound that is named as a salt.
measured_attribute: pKi

stdin: What value of pKi on D2 receptor (Chlorocebus aethiops) does c1ccc2c(N3CCN(Cc4c[nH]c(-c5ccc6c(c5)CCO6)n4)CC3)nccc2c1 [Compound 8] have?
stdout: 6.90

stdin: Missing value: pKi, D2 receptor (Chlorocebus aethiops), entry Cc1cnc(N2CCN(Cc3cnc(-c4ccc5c(c4)CCO5)[nH]3)CC2)nc1 [Compound 3a] . Fill in?
stdout: 6.15

stdin: Test system D2 receptor (Chlorocebus aethiops); read-out pKi; what value for c1ccc(CC2CCN(Cc3c[nH]c(-c4ccc5c(c4)CCO5)n3)CC2)cc1 [Compound 6, hydrochloride] ?
stdout: 6.19

1. c1ccc2nc(N3CCN(Cc4cnc(-c5ccc6c(c5)CCO6)[nH]4)CC3)ncc2c1 [Compound 7, hydrochloride]
2. COc1ccccc1N1CCN(Cc2c[nH]c(-c3ccc4c(c3)CCO4)n2)CC1 [Compound 1]
stdin: Name the one with the greater pKi value, either 1 or 2 as given. Mark your answer with the label of the selected entry.
stdout: 2
